# ASSAY COMMENT: qHTS assay to identify small molecule agonists of the AP-1 signaling pathway (AID 1159526); further: on the % scale 0 is the no-effect control and ±100 the full control effect
# SETUP CONDITIONS: ME-180 (cervical carcinoma) AP-1-bla reporter, beta-lactamase FRET ratio, 5 h; series mostly up to 76.8 µM
Records with an inconclusive call do not appear. Active and inactive are the calls of the source. The call rests on the fitted dose curve.
QUANTITY NAME: outcome

C[C@]12CC[C@@H]3c4ccc(O)cc4CC[C@H]3[C@@H]1CC[C@@H]2O ... inactive
CN(C)C ... inactive
O=C(O)c1ccc(O)cc1 ... inactive
CCCCCCC(C)O (stereo not drawn) ... inactive
CC1(C)OC(=O)NC1=O ... inactive

State the recorded outcome for this entry: "c1ccc2cc3ccccc3cc2c1" inactive

State the recorded outcome for this entry: "CCO[Si](CCCNC(N)=O)(OCC)OCC" inactive

State the recorded outcome for this entry: "CC1=CC(C)(C)Nc2ccccc21" inactive

====

# ASSAY COMMENT: qHTS assay to identify small molecule that activate the aryl hydrocarbon receptor (AhR) signaling pathway - cell viability counter screen (AID 743086); further: nearly all actives have a fitted effect of over 45% in size
# SETUP CONDITIONS: HepG2-AhR-luc viability, CellTiter-Fluor, 24 h; series mostly up to 70.3 µM
Inconclusive results are not listed. Active and inactive are the calls of the source. Calls come from the whole dose curve; as a rule, active = well fitted cell-killing curve with a large enough effect in the repeat runs; inconclusive = weak or mixed curves, or effect the other way; inactive = flat fitted curve, though single readings scatter.
Outcome field: choose from true (1) (active), false (0) (inactive)

Recorded test call requested for "CN(C)CCCN1c2ccccc2Sc2ccc(Cl)cc21" true (1)

Recorded test call requested for "CC1(C)NC(=O)N(c2ccc([N+](=O)[O-])c(C(F)(F)F)c2)C1=O" false (0)

Recorded test call requested for "IC(I)I" false (0)

Recorded test call requested for "NC[C@H](O)c1ccc(O)c(O)c1" false (0)

Recorded test call requested for "COc1ccc(C(=O)c2ccccc2O)c(O)c1" false (0)

Recorded test call requested for "O=C(O)c1cc(=O)[nH]c(=O)[nH]1" false (0)

Recorded test call requested for "OC[C@@H](O)[C@@H](O[C@@H]1O[C@H](CO)[C@H](O)[C@H](O)[C@H]1O)[C@H](O)[C@@H](O)CO" false (0)

Recorded test call requested for "C[C@]12CC[C@@H]3c4ccc(O)cc4CC[C@H]3[C@@H]1CC[C@H]2O" false (0)

Recorded test call requested for "CNC[C@H](O)c1ccc(O)c(O)c1" false (0)

Recorded test call requested for "Nc1ccc(N)c(Cl)c1" false (0)

====

# ASSAY COMMENT: qHTS RealTime-Glo MT Cell Viability Assay in HepG2 cells - 0 hour (AID 1224889); further: on the % scale 0 is the no-effect control and ±100 the full control effect; nearly all actives have a fitted effect of over 50% in size
# SETUP CONDITIONS: RealTime-Glo luminescence; series mostly up to 76.8 µM
Records with an inconclusive call do not appear. Active and inactive are the calls of the source. The call rests on the fitted dose curve; in most records, active means well fitted cell-killing curve with a large enough effect in the repeat runs; inconclusive means weak or mixed curves, or effect the other way; inactive means flat fitted curve, though single readings scatter.
QUANTITY NAME: outcome

C[C@]12CC[C@@H]3c4ccc(O)cc4CC[C@H]3[C@@H]1CC[C@H]2O ... inactive
Oc1ccc(C(c2ccc(O)cc2)C(Cl)(Cl)Cl)cc1 ... inactive
CC(=O)OC(C)C ... inactive
COC(=O)CC(=O)OC ... inactive
CC(=O)[C@H]1CC[C@H]2[C@@H]3CC=C4C[C@@H](O)CC[C@]4(C)[C@H]3CC[C@]12C ... inactive
O=C(O)c1ccc(O)cc1 ... inactive

State the recorded outcome for this entry: "COc1cc([C@H]2Oc3cc([C@H]4Oc5cc(O)cc(O)c5C(=O)[C@@H]4O)ccc3O[C@@H]2CO)ccc1O" inactive

State the recorded outcome for this entry: "Cc1ccc2c(c1)C(=O)OC2=O" inactive

State the recorded outcome for this entry: "CCCCCCCCCCCCCO" inactive

State the recorded outcome for this entry: "Nc1cc([N+](=O)[O-])ccc1C(=O)O" inactive

State the recorded outcome for this entry: "Nc1ccc(O)c(N)c1" inactive

State the recorded outcome for this entry: "O=C1CCc2ccccc2O1" inactive

State the recorded outcome for this entry: "Cc1ccc(C(C)(C)C)cc1" inactive

====

# ASSAY COMMENT: qHTS assay to identify small molecule antagonists of the sonic hedgehog signaling (Shh) pathway - cell viability counter screen (AID 1259367); further: nearly all actives have a fitted effect of over 55% in size; further: potency means the concentration at half of the fitted maximal effect
# SETUP CONDITIONS: NIH/3T3 Gli1-Luc viability, CellTiter-Fluor, 24 h; series mostly up to 92.4 µM
# From the text: National Center for Advancing Translational Sciences [NCATS] NIH Chemical Genomics Center [NCGC] U.S. Environmental Protection Agency [EPA] National Institutes of Environmental Health Sciences [NIEHS] National Toxicology Program [NTP] U.S. Food and Drug Administration [FDA] The sonic hedgehog (Shh) pathway is essential for normal embryonic development. Dysregulation of the Shh pathway can cause severe developmental defects in organs. […]
Inconclusive results are not listed. Active and inactive are the calls of the source. Calls follow the shape of the dose curve; as a rule, active = well fitted cell-killing curve with a large enough effect in the repeat runs; inconclusive = weak or mixed curves, or effect the other way; inactive = no such curve, though single readings can be large or run the other way.
QUANTITY NAME: Potency

Example entries and their recorded answers appear below.
CCC(=O)O[C@H]1[C@H](O[C@@H]2[C@@H](C)[C@H](O[C@H]3C[C@@](C)(OC)[C@@H](O)[C@H](C)O3)[C@@H](C)C(=O)O[C@H](CC)[C@@](C)(O)[C@H](O)[C@@H](C)C(=O)[C@H](C)C[C@@]2(C)O)O[C@H](C)C[C@@H]1N(C)C ... 14.4 µM (active)
CCCCCC1C(=O)CCC1CC(=O)OC (stereo not given) ... inactive
Cc1ccc([N+](=O)[O-])c(C)c1 ... inactive
CCCCCCOCCOCCO ... inactive
CC(=O)[C@@]1(O)CC[C@H]2[C@@H]3C[C@H](C)C4=CC(=O)C=C[C@]4(C)[C@@]3(F)[C@@H](O)C[C@@]21C ... inactive
Oc1c(Cl)ccc(Cl)c1Cl ... inactive
CN(C)CCCN1c2ccccc2Sc2ccc(Cl)cc21 ... 61.1 µM (active)
C=CCCCCCCCCCC ... inactive
C=C1C[C@H]2[C@@H]3C=C(C)C4=CC(=O)CC[C@]4(C)[C@H]3CC[C@]2(C)[C@@]1(OC(C)=O)C(C)=O ... inactive

State the recorded Potency for this entry: "NCCOCCO" inactive

====

# ASSAY COMMENT: qHTS assay to identify small molecule antagonists of the TGF-beta/Smad signaling pathway - cell viability counter screen (AID 1346824); further: on the % scale 0 is the no-effect control and ±100 the full control effect; nearly all actives have a fitted effect of over 50% in size
# SETUP CONDITIONS: SBE-bla HEK293T viability, CellTiter-Glo luminescence; series mostly up to 76.8 µM
Inconclusive results are not listed. The source made the active and inactive calls. Calls come from the whole dose curve; as a rule, active = well fitted cell-killing curve with a large enough effect in the repeat runs; inconclusive = weak or mixed curves; inactive = flat fitted curve, though single readings scatter.
QUANTITY NAME: outcome

Example entries and their recorded answers appear below.
O=C(CCCN1CCC(O)(c2ccc(Cl)cc2)CC1)c1ccc(F)cc1 ... inactive
CC1(C)C(C=C(Cl)Cl)C1C(=O)OCc1cccc(Oc2ccccc2)c1 (configuration not stated) ... inactive
c1ccc2cc3ccccc3cc2c1 ... inactive
FC(F)(F)C(Cl)Br (configuration not stated) ... inactive
CCCCCCCC/C=C\CCCCCCCC(=O)O ... inactive
CCCCCCCCCCCCCO ... inactive

State the recorded outcome for this entry: "Nc1ccc(O)c(N)c1" inactive

====

# ASSAY COMMENT: qHTS assay to identify small molecule agonists of the estrogen related receptor (ERR) signaling pathway from Tox21 library (AID 1224849); further: on the % scale 0 is the no-effect control and ±100 the full control effect; nearly all actives have a fitted effect of over 15% in size
# SETUP CONDITIONS: ERR reporter cell line, ONE-Glo luciferase, 18 h; at 92.4 µM (top of the series)
QUANTITY NAME: activity change, positive = activation (%)
Give the value, in units of %, as a plain number.

State the recorded activity change, positive = activation for this entry: "OC[C@@H](O)[C@@H](O[C@@H]1O[C@H](CO)[C@H](O)[C@H](O)[C@H]1O)[C@H](O)[C@@H](O)CO" 5.88

State the recorded activity change, positive = activation for this entry: "O=C1OC2(c3ccccc31)c1cc(I)c(O)c(I)c1Oc1c2cc(I)c(O)c1I" -20.6

State the recorded activity change, positive = activation for this entry: "CNC[C@H](O)c1ccc(O)c(O)c1" -7.74

State the recorded activity change, positive = activation for this entry: "COc1ccc(C(=O)c2ccccc2O)c(O)c1" -27.1

State the recorded activity change, positive = activation for this entry: "COc1cc([C@H]2Oc3cc([C@H]4Oc5cc(O)cc(O)c5C(=O)[C@@H]4O)ccc3O[C@@H]2CO)ccc1O" -26.2

State the recorded activity change, positive = activation for this entry: "CN(C)/N=N/c1nc[nH]c1C(N)=O" -35.6

State the recorded activity change, positive = activation for this entry: "C[C@]12C=CC(=O)C=C1CC[C@H]1[C@@H]3C[C@@H](O)[C@](O)(C(=O)CO)[C@@]3(C)C[C@H](O)[C@@]12F" -0.443

State the recorded activity change, positive = activation for this entry: "O=C(O)c1ccc(O)cc1" 9.49

State the recorded activity change, positive = activation for this entry: "O=C(O)c1cc(=O)[nH]c(=O)[nH]1" 2.48

State the recorded activity change, positive = activation for this entry: "CN(C)CCCN1c2ccccc2Sc2ccc(Cl)cc21" -80.4

State the recorded activity change, positive = activation for this entry: "CC1(C)NC(=O)N(c2ccc([N+](=O)[O-])c(C(F)(F)F)c2)C1=O" -43.1

State the recorded activity change, positive = activation for this entry: "O=C(O)CCCCCCCCCCCC(=O)O" -2.27

State the recorded activity change, positive = activation for this entry: "Cc1ccc([N+](=O)[O-])c(C)c1" 6.89
